// provenance: patent US20240092784A1

# key: entry, value: pIC50
assayed target: human SPR (Homo sapiens (Human), UniProt P35270)
Sequence (P35270 whole entry): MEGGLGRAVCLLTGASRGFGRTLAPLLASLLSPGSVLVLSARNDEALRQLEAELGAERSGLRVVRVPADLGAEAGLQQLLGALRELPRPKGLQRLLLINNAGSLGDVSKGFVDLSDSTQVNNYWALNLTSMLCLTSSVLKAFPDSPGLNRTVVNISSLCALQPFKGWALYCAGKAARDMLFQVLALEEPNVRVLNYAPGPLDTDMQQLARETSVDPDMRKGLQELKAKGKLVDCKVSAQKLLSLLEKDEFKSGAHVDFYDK
test description: Evaluation Example 2: Measurement of human SPR inhibitory activity (seven concentrations, sepiapterin absorbance at 420 nm)
Assay type: biochemical
experimental context: Evaluation Example 2, seven concentrations 0.14 nM to 100 nM, 240 minutes at room temperature, read-out: IC50
A value of pIC50 is the negative decimal logarithm of a concentration given in moles per litre.

Recorded results for 3 molecules are shown here.
CC(C)Cn1c(=O)c(C(=O)NC2CC2)c(O)n2ncc(CCc3ccc(C(F)(F)F)nc3)c12 [Synthesis Example 251] :: 8.76
CC[C@H]1CCCN1C(=O)/C=C/c1c(C)nn2c(O)c(C(=O)NC3CC3)c(=O)n(CC(C)C)c12 [Synthesis Example 640] :: 8.94
CC(C)Cn1c(=O)c(C(=O)NC2CC2)c(O)n2ncc(/C=C/C(=O)N3CCC(C)(O)CC3)c12 :: 9.10

Query block: Fill blank: measured pIC50 of the molecule Cc1cnc(Nc2cc3n(CC(C)(C)C)c(=O)c(C(=O)NC4CC4)c(O)n3n2)cn1 [Synthesis Example 333] is ____.
Result block: 8.73

====

assayed target: human SPR (Homo sapiens (Human), UniProt P35270)
test description: Evaluation Example 2: Measurement of human SPR inhibitory activity (seven concentrations, sepiapterin absorbance at 420 nm)
Format: biochemical
experimental context: sepiapterin absorbance, Table 41, read-out: concentration at 50% inhibition of human SPR (IC50)
attribute measured: pIC50
A value of pIC50 is the negative decimal logarithm of a concentration given in moles per litre.

Recorded results for 2 compounds are shown here.
Cc1nn2c(O)c(C(=O)NC3CC3)c(=O)n(CC(C)C)c2c1/C=C/C(=O)N1CCN(C)C[C@H]1C [Synthesis Example 702] :: 9.06
Cc1nn2c(O)c(C(=O)NC3CC3)c(=O)n(CC(C)C)c2c1/C=C/C(=O)N1CCOc2ccncc21 [Synthesis Example 695] :: 8.89

Next compound, please.
Query block: Fill blank: measured pIC50 of the compound CC(C)Cn1c(=O)c(C(=O)NC2CC2)c(O)n2ncc(/C=C/C(=O)N3CC4CCC(C3)C4(F)F)c12 [Synthesis Example 720] is ____.
Result block: 8.99

====

assayed target: human SPR (Homo sapiens (Human), UniProt P35270)
test description: Evaluation Example 2: Measurement of human SPR inhibitory activity (seven concentrations, sepiapterin absorbance at 420 nm)
Format: biochemical
experimental context: Evaluation Example 2, seven concentrations 0.14 nM to 100 nM, 240 minutes at room temperature, read-out: IC50
# key: entry, value: IC50
Please respond with the number in nM and leave the unit unwritten.

Query block: Fill blank: measured IC50 of the compound CC(C)(C)Cn1c(=O)c(C(=O)NC2CC2)c(O)n2nc3c(c12)CCN3C(N)=O [Synthesis Example 397] is ____.
Result block: 1.75

Query block: Fill blank: measured IC50 of the compound CCN1CCC2(CCCN2C(=O)/C=C/c2c(C)nn3c(O)c(C(=O)NC4CC4)c(=O)n(CC(C)C)c23)CC1 [Synthesis Example 667] is ____.
Result block: 0.94

Query block: Fill blank: measured IC50 of the compound CC(C)(C)Cn1c(=O)c(C(=O)NC2CC2)c(O)n2nc(Nc3ccnc(C(N)=O)n3)cc12 [Synthesis Example 351] is ____.
Result block: 0.9

Query block: Fill blank: measured IC50 of the compound CC(C)Cn1c(=O)c(C(=O)NC2CC2)c(O)n2ncc(/C=C/C(=O)N3CCC4(CCOCC4)C3)c12 is ____.
Result block: 1

Query block: Fill blank: measured IC50 of the compound Cc1nn2c(O)c(C(=O)NC3CC3)c(=O)n(CC(C)(C)C)c2c1/C=C/C(=O)N1CCC[C@@H]1C(C)(C)O [Synthesis Example 655] is ____.
Result block: 1.05

Query block: Fill blank: measured IC50 of the compound Cc1nn2c(O)c(C(=O)NC3CC3)c(=O)n(CC(C)C)c2c1/C=C/C(=O)N1CCOCC1 is ____.
Result block: 0.7

Query block: Fill blank: measured IC50 of the compound CC(C)Cn1c(=O)c(C(=O)NC2CC2)c(O)n2ncc(/C=C/C(=O)N3CCN(C4CC4)CC3)c12 is ____.
Result block: 1.18

====

assayed target: UniProt P35270
test description: Evaluation Example 2: Measurement of human SPR inhibitory activity (seven concentrations, sepiapterin absorbance at 420 nm)
Assay type: biochemical
experimental context: Evaluation Example 2, seven concentrations 0.14 nM to 100 nM, 240 minutes at room temperature, read-out: IC50
Where a name gives a salt, the structure may show the parent alone.
attribute measured: log10 of IC50 (log10 of the value in nM)
// do not treat as linear: log10 of IC50, unit nM

Recorded results for 8 molecules are shown here.
Cc1nn2c(O)c(C(=O)NC3CC3)c(=O)n(CC(C)C)c2c1/C=C/C(=O)N1CCOC[C@@H]1c1ccccc1 [Synthesis Example 643] :: 0.14
Nc1nn2c(O)c(C(=O)NC3CC3)c(=O)n(CC3CC3)c2c1/C=C/C(=O)N1CCC(F)(F)CC1 [Synthesis Example 420, hydrochloride] :: -0.12
CC(C)(C)Cn1c(=O)c(C(=O)NC2CC2)c(O)n2nc(-c3n[nH]cc3C(F)(F)F)cc12 [Synthesis Example 298] :: 0.49
CC(C)Cn1c(=O)c(C(=O)NC2CC2)c(O)n2ncc(/C=C/C(=O)N3CCC[C@@H]3C(C)C)c12 :: 0.10
Cc1nn2c(O)c(C(=O)NC3CC3)c(=O)n(CC(C)C)c2c1/C=C/C(=O)N1[C@H](C)COC[C@@H]1C [Synthesis Example 641] :: -0.05
CC(C)(C)Cn1c(=O)c(C(=O)NC2CC2)c(O)n2nc(-c3ccccn3)cc12 [Synthesis Example 299] :: 0.81
C[C@@H](Nc1cc2n(CC(C)(C)C)c(=O)c(C(=O)NC3CC3)c(O)n2n1)c1ccccn1 [Synthesis Example 327] :: 0.38
Cc1nn2c(O)c(C(=O)NC3CC3)c(=O)n(CC(C)C)c2c1/C=C/C(=O)N1CC2C(C1)C2(F)F (centres unmarked) :: 0.03

Query block: So what log10 of IC50 did CC(C)Cn1c(=O)c(C(=O)NC2CC2)c(O)n2ncc(/C=C/C(=O)N3CC4CCC(C3)O4)c12 get with UniProt P35270?
Result block: -0.24

Query block: So what log10 of IC50 did Cc1nn2c(O)c(C(=O)NC3CC3)c(=O)n(CC(C)C)c2c1/C=C/C(=O)N1CC[C@H](C(C)(C)O)C1 [Synthesis Example 623] get with UniProt P35270?
Result block: 0.10

Query block: So what log10 of IC50 did CC(C)Cn1c(=O)c(C(=O)NC2CC2)c(O)n2ncc(/C=C/C(C)(C)C)c12 [Synthesis Example 243] get with UniProt P35270?
Result block: 0.20

Query block: So what log10 of IC50 did C/C(=C\c1cnn2c(O)c(C(=O)NC3CC3)c(=O)n(CC(C)C)c12)C(=O)NC(C)C [Synthesis Example 257] get with UniProt P35270?
Result block: 0.00

Query block: So what log10 of IC50 did CC[C@@H]1CCCN1C(=O)/C=C/c1c(C)nn2c(O)c(C(=O)NC3CC3)c(=O)n(CC(C)C)c12 get with UniProt P35270?
Result block: 0.21

Query block: So what log10 of IC50 did CC(C)(C)Cn1c(=O)c(C(=O)NC2CC2)c(O)n2nc(Nc3ccnc(C#N)n3)cc12 [Synthesis Example 325] get with UniProt P35270?
Result block: 0.16

====

assayed target: human SPR (Homo sapiens (Human))
test description: Evaluation Example 2: Measurement of human SPR inhibitory activity (seven concentrations, sepiapterin absorbance at 420 nm)
Assay type: biochemical
experimental context: Evaluation Example 2, seven concentrations 0.14 nM to 100 nM, 240 minutes at room temperature, read-out: IC50
Where a name gives a salt, the structure may show the parent alone.
attribute measured: pIC50
A value of pIC50 is the negative decimal logarithm of a concentration given in moles per litre.

CC(C)Cn1c(=O)c(C(=O)NC2CC2)c(O)n2ncc(/C=C/C(=O)N3C[C@@H]4C[C@H]3CO4)c12 [compound 539] :: 9.19
Cc1cnc(CNC(=O)c2cnn3c(O)c(C(=O)NC4CC4)c(=O)n(CC(C)C)c23)cn1 [Synthesis Example 224] :: 9.11
COC(C)(C)Cn1c(=O)c(C(=O)NC2CC2)c(O)n2nc(C(N)=O)cc12 [Synthesis Example 275] :: 9.17
C/C(=C\c1cnn2c(O)c(C(=O)NC3CC3)c(=O)n(CC(C)C)c12)C(=O)N1CCC(F)(F)C1 [Synthesis Example 256] :: 9.01
CC(C)Cn1c(=O)c(C(=O)NC2CC2)c(O)n2nc(N)c(/C=C/C3CCOCC3)c12 [Synthesis Example 434, hydrochloride] :: 8.85

Query block: Fill blank: measured pIC50 of the molecule CC(C)Cn1c(=O)c(C(=O)NC2CC2)c(O)n2ncc(/C=C/C(=O)N3CCOCC34CCC4)c12 [compound 547] is ____.
Result block: 9.13

Query block: Fill blank: measured pIC50 of the molecule CC(C)Cn1c(=O)c(C(=O)NCC(F)(F)F)c(O)n2ncc(/C=C/C(=O)N3CCOCC3)c12 [compound 552] is ____.
Result block: 9.06

Query block: Fill blank: measured pIC50 of the molecule CC(C)Cn1c(=O)c(C(=O)N[C@@H](C)C(F)(F)F)c(O)n2ncc(/C=C/C(=O)N3CCOCC3)c12 [compound 545] is ____.
Result block: 9.18

Query block: Fill blank: measured pIC50 of the molecule CC(C)Cn1c(=O)c(C(=O)NC2CC2)c(O)n2ncc(/C=C/C(=O)N3CCC[C@H]3C(=O)N(C)C)c12 [compound 587] is ____.
Result block: 8.86

Query block: Fill blank: measured pIC50 of the molecule CC(C)(C)Cn1c(=O)c(C(=O)NC2CC2)c(O)n2nc(Nc3ccncn3)cc12 [Synthesis Example 12] is ____.
Result block: 8.85

Query block: Fill blank: measured pIC50 of the molecule Cc1ccc(CNC(=O)c2cnn3c(O)c(C(=O)NC4CC4)c(=O)n(CC(C)C)c23)nc1 [Synthesis Example 228] is ____.
Result block: 8.99

Query block: Fill blank: measured pIC50 of the molecule CC(C)Cn1c(=O)c(C(=O)NC2CC2)c(O)n2ncc(C(=O)NCc3ccc(F)cc3F)c12 [Synthesis Example 234] is ____.
Result block: 8.85

Query block: Fill blank: measured pIC50 of the molecule C/C(=C\c1cnn2c(O)c(C(=O)NC3CC3)c(=O)n(CC(C)C)c12)C(=O)N1CCN(C2CC(F)(F)C2)CC1 [Synthesis Example 255] is ____.
Result block: 8.99

Query block: Fill blank: measured pIC50 of the molecule CC(C)(C)Cn1c(=O)c(C(=O)NC2CC2)c(O)n2nc(NC(N)=O)c(/C=C/C(=O)N3CCOCC3)c12 [Synthesis Example 424] is ____.
Result block: 9.17
